Here the recorded IC50 is given for each entry.
system: 845751-090-R-J2-PDC tumor spheroid viability; assay: Anticancer human tumor 845751-090-R-J2-PDC patient-derived head and neck squamous carcinoma cell line growth inhibition [IpAb]; conditions: curve of compound; spheroids with HUVEC and MSC

Below, 3 compounds whose answers are already recorded.
>>> val("Cn1ncnc1[C@H]1c2n[nH]c(=O)c3cc(F)cc(c23)N[C@@H]1c1ccc(F)cc1")
"> 0.1 µM"
>>> val("C=CCn1c(=O)c2cnc(Nc3ccc(N4CCN(C)CC4)cc3)nc2n1-c1cccc(C(C)(C)O)n1")
"> 10 µM"
>>> val("CC(=O)c1c(C)c2cnc(Nc3ccc(N4CCNCC4)cn3)nc2n(C2CCCC2)c1=O")
"> 0.3 µM"

Entry Cn1cnc2c(F)c(Nc3ccc(Br)cc3Cl)c(C(=O)NOCCO)cc21 has what IC50? > 3 µM

Entry Cn1nccc1Nc1nccc(-c2ccn(C(CO)c3ccc(Cl)c(F)c3)c(=O)c2)n1 (stereo not given) has what IC50? > 10 µM

---

System: 845751-090-R-J2-PDC tumor spheroid viability
Assay: Anticancer human tumor 845751-090-R-J2-PDC cell line growth inhibition [IpAb];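 further: spheroids exposed to compounds for 7 days before readout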;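 on viability, T/C: CTG3D luminescence normalised so that 100% = DMSO vehicle control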
Conditions: second compound 0.1 µM; first compound 3.16 µM; stronger effect = lower value; spheroids with HUVEC and MSC
Procedure: Combinatorial screen of targeted agents with ipatasertib and abemaciclib in multi-cell type tumor spheroids […] Compounds. […] If the clinical Cmax for an agent had not been determined, the highest concentration tested was 10 microM. NCI60 Cell Culture. […] The optimal seeding densities for each of the cell lines at each time point assessed were determined prior to performing the concentration response studies. […]
Here the recorded viability, T/C is given for each entry.
Field format: number, assumed %, no unit text.

Below, 2 compounds whose answers are already recorded.
>>> val("Cc1nc(NC(=O)N2CCCC2C(N)=O)sc1-c1ccnc(C(C)(C)C(F)(F)F)c1 (stereo not given) + CCN1CCN(Cc2ccc(Nc3ncc(F)c(-c4cc(F)c5nc(C)n(C(C)C)c5c4)n3)nc2)CC1")
14.7
>>> val("CC1(C)CCC(CN2CCN(c3ccc(C(=O)NS(=O)(=O)c4ccc(NCC5CCOCC5)c([N+](=O)[O-])c4)c(Oc4cnc5[nH]ccc5c4)c3)CC2)=C(c2ccc(Cl)cc2)C1 + CC(C)NCC(C(=O)N1CCN(c2ncnc3c2C(C)CC3O)CC1)c1ccc(Cl)cc1")
111

Entry C=CC(=O)N1CCN(c2nc(=O)n(-c3c(C)ccnc3C(C)C)c3nc(-c4c(O)cccc4F)c(F)cc23)C(C)C1 (stereo not given) + CCN1CCN(Cc2ccc(Nc3ncc(F)c(-c4cc(F)c5nc(C)n(C(C)C)c5c4)n3)nc2)CC1 has what viability, T/C? 46

Entry Cn1nccc1Nc1nccc(-c2ccn(C(CO)c3ccc(Cl)c(F)c3)c(=O)c2)n1 (stereo not given) + CCN1CCN(Cc2ccc(Nc3ncc(F)c(-c4cc(F)c5nc(C)n(C(C)C)c5c4)n3)nc2)CC1 has what viability, T/C? 185

Entry Cn1ncc(Cl)c1-c1cc(C(=O)NC(CN)Cc2cccc(F)c2)sc1Cl (stereo not given) + CCN1CCN(Cc2ccc(Nc3ncc(F)c(-c4cc(F)c5nc(C)n(C(C)C)c5c4)n3)nc2)CC1 has what viability, T/C? 6.19

---

tested on: 845751-090-R-J2-PDC tumor spheroid viability; assay: Anticancer human tumor 845751-090-R-J2-PDC cell line growth inhibition [IpAb]; conditions: second compound 0.316 µM; first compound 0.3 µM; stronger effect = lower value; spheroids with HUVEC and MSC;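 further: spheroids exposed to compounds for 7 days before readout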;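 on viability, T/C: CTG3D luminescence normalised so that 100% = DMSO vehicle control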
Here the recorded viability, T/C is given for each entry.
Field format: number, assumed %, no unit text.

Below, 2 compounds whose answers are already recorded.
>>> val("CC(C)(C)c1cnc(CSc2cnc(NC(=O)C3CCNCC3)s2)o1 + CCN1CCN(Cc2ccc(Nc3ncc(F)c(-c4cc(F)c5nc(C)n(C(C)C)c5c4)n3)nc2)CC1")
0.79
>>> val("CC(C)(C)c1cnc(CSc2cnc(NC(=O)C3CCNCC3)s2)o1 + CC(C)NCC(C(=O)N1CCN(c2ncnc3c2C(C)CC3O)CC1)c1ccc(Cl)cc1")
0.23

Query compound follows.
Any idea what viability, T/C came out for CC(=O)c1c(C)c2cnc(Nc3ccc(N4CCNCC4)cn3)nc2n(C2CCCC2)c1=O + CC(C)NCC(C(=O)N1CCN(c2ncnc3c2C(C)CC3O)CC1)c1ccc(Cl)cc1 on 845751-090-R-J2-PDC tumor spheroid viability? 34.1

---

tested on: 845751-090-R-J2-PDC tumor spheroid viability; assay: Anticancer human tumor 845751-090-R-J2-PDC cell line growth inhibition [IpAb]; settings: second compound 0.316 µM; first compound 1 µM; stronger effect = lower value; spheroids with HUVEC and MSC;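 further: spheroids exposed to compounds for 7 days before readout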;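 on viability, T/C: CTG3D luminescence normalised so that 100% = DMSO vehicle control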
Here the recorded viability, T/C is given for each entry.
Field format: number, assumed %, no unit text.

Below, 5 compounds whose answers are already recorded.
>>> val("COc1c(OCCCN2CCOCC2)ccc2c3n(c(=NC(=O)c4cnc(N)nc4)nc12)CCN3 + CC(C)NCC(C(=O)N1CCN(c2ncnc3c2C(C)CC3O)CC1)c1ccc(Cl)cc1")
5.73
>>> val("Cc1nc(NC(=O)N2CCCC2C(N)=O)sc1-c1ccnc(C(C)(C)C(F)(F)F)c1 (stereo not given) + CC(C)NCC(C(=O)N1CCN(c2ncnc3c2C(C)CC3O)CC1)c1ccc(Cl)cc1")
15.6
>>> val("Cn1nccc1Nc1nccc(-c2ccn(C(CO)c3ccc(Cl)c(F)c3)c(=O)c2)n1 (stereo not given) + CC(C)NCC(C(=O)N1CCN(c2ncnc3c2C(C)CC3O)CC1)c1ccc(Cl)cc1")
14.3
>>> val("C=CCn1c(=O)c2cnc(Nc3ccc(N4CCN(C)CC4)cc3)nc2n1-c1cccc(C(C)(C)O)n1 + CC(C)NCC(C(=O)N1CCN(c2ncnc3c2C(C)CC3O)CC1)c1ccc(Cl)cc1")
16.9
>>> val("C=CC(=O)N1CCN(c2nc(=O)n(-c3c(C)ccnc3C(C)C)c3nc(-c4c(O)cccc4F)c(F)cc23)C(C)C1 (stereo not given) + CCN1CCN(Cc2ccc(Nc3ncc(F)c(-c4cc(F)c5nc(C)n(C(C)C)c5c4)n3)nc2)CC1")
55.7

Entry C=CCn1c(=O)c2cnc(Nc3ccc(N4CCN(C)CC4)cc3)nc2n1-c1cccc(C(C)(C)O)n1 + CCN1CCN(Cc2ccc(Nc3ncc(F)c(-c4cc(F)c5nc(C)n(C(C)C)c5c4)n3)nc2)CC1 has what viability, T/C? 60.3

Entry CC1(C)CCC(CN2CCN(c3ccc(C(=O)NS(=O)(=O)c4ccc(NCC5CCOCC5)c([N+](=O)[O-])c4)c(Oc4cnc5[nH]ccc5c4)c3)CC2)=C(c2ccc(Cl)cc2)C1 + CCN1CCN(Cc2ccc(Nc3ncc(F)c(-c4cc(F)c5nc(C)n(C(C)C)c5c4)n3)nc2)CC1 has what viability, T/C? 85.3

Entry CCCS(=O)(=O)Nc1ccc(F)c(C(=O)c2c[nH]c3ncc(-c4ccc(Cl)cc4)cc23)c1F + CCN1CCN(Cc2ccc(Nc3ncc(F)c(-c4cc(F)c5nc(C)n(C(C)C)c5c4)n3)nc2)CC1 has what viability, T/C? 38.6

Entry Cn1nccc1Nc1nccc(-c2ccn(C(CO)c3ccc(Cl)c(F)c3)c(=O)c2)n1 (stereo not given) + CCN1CCN(Cc2ccc(Nc3ncc(F)c(-c4cc(F)c5nc(C)n(C(C)C)c5c4)n3)nc2)CC1 has what viability, T/C? 204

Entry CC1(C)CCC(CN2CCN(c3ccc(C(=O)NS(=O)(=O)c4ccc(NCC5CCOCC5)c([N+](=O)[O-])c4)c(Oc4cnc5[nH]ccc5c4)c3)CC2)=C(c2ccc(Cl)cc2)C1 + CC(C)NCC(C(=O)N1CCN(c2ncnc3c2C(C)CC3O)CC1)c1ccc(Cl)cc1 has what viability, T/C? 44

---

system: 845751-090-R-J2-PDC tumor spheroid viability; assay: Anticancer human tumor 845751-090-R-J2-PDC cell line growth inhibition [IpAb]; details: second compound 3.16 µM; first compound 10 µM; stronger effect = lower value; spheroids with HUVEC and MSC;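 further: spheroids exposed to compounds for 7 days before readout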;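 on viability, T/C: CTG3D luminescence normalised so that 100% = DMSO vehicle control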
Here the recorded viability, T/C is given for each entry.
Field format: number, assumed %, no unit text.

>>> val("CC1(C)CCC(CN2CCN(c3ccc(C(=O)NS(=O)(=O)c4ccc(NCC5CCOCC5)c([N+](=O)[O-])c4)c(Oc4cnc5[nH]ccc5c4)c3)CC2)=C(c2ccc(Cl)cc2)C1 + CC(C)NCC(C(=O)N1CCN(c2ncnc3c2C(C)CC3O)CC1)c1ccc(Cl)cc1")
5.79

Entry C=CC(=O)N1CCN(c2nc(=O)n(-c3c(C)ccnc3C(C)C)c3nc(-c4c(O)cccc4F)c(F)cc23)C(C)C1 (configuration not stated) + CC(C)NCC(C(=O)N1CCN(c2ncnc3c2C(C)CC3O)CC1)c1ccc(Cl)cc1 has what viability, T/C? 5.86

---

test system: 845751-090-R-J2-PDC tumor spheroid viability; test: Anticancer human tumor 845751-090-R-J2-PDC cell line growth inhibition [IpAb]; conditions: second compound 1 µM; first compound 0.000316 µM; stronger effect = lower value; spheroids with HUVEC and MSC;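 further: spheroids exposed to compounds for 7 days before readout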;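 on viability, T/C: CTG3D luminescence normalised so that 100% = DMSO vehicle control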
Here the recorded viability, T/C is given for each entry.
Field format: number, assumed %, no unit text.

Below, 3 compounds whose answers are already recorded.
>>> val("Cn1ncnc1[C@H]1c2n[nH]c(=O)c3cc(F)cc(c23)N[C@@H]1c1ccc(F)cc1 + CC(C)NCC(C(=O)N1CCN(c2ncnc3c2C(C)CC3O)CC1)c1ccc(Cl)cc1")
30.1
>>> val("CC(C)n1nc(-c2ccc3oc(N)nc3c2)c2c(N)ncnc21 + CCN1CCN(Cc2ccc(Nc3ncc(F)c(-c4cc(F)c5nc(C)n(C(C)C)c5c4)n3)nc2)CC1")
56.7
>>> val("CC(C)n1nc(-c2ccc3oc(N)nc3c2)c2c(N)ncnc21 + CC(C)NCC(C(=O)N1CCN(c2ncnc3c2C(C)CC3O)CC1)c1ccc(Cl)cc1")
22.4

Query compound follows.
Entry Cn1ncnc1[C@H]1c2n[nH]c(=O)c3cc(F)cc(c23)N[C@@H]1c1ccc(F)cc1 + CCN1CCN(Cc2ccc(Nc3ncc(F)c(-c4cc(F)c5nc(C)n(C(C)C)c5c4)n3)nc2)CC1 has what viability, T/C? 58.8
